Data credit: ChEMBL document CHEMBL4004878

Tested on: Staphylococcus aureus
assayOverview: Bacteriostatic activity against methicillin-resistant Staphylococcus aureus PU32 expressing inducible ermA after 20 hrs by two-fold microbroth dilution method
Assay type: functional
conditionsUsed: PU32, 20 h
assayEndpoint: MIC (µg/mL)
Write it as a number; the unit µg/mL goes unstated.

Study these solved cases before continuing.
molecularString	MIC [µg/mL]
CC[C@H]1OC(=O)[C@@](C)(F)C(=O)[C@H](C)[C@@H](O[C@@H]2O[C@H](C)C[C@H](N(C)C)[C@H]2O)[C@](C)(OC)C[C@@H](C)/C(=N\OC/C=C/c2ccc3ncccc3c2)[C@H](C)[C@H]2OC(=O)O[C@@]21C	1
CC[C@H]1OC(=O)[C@H](C)[C@H](OC(=O)Cc2ccccn2)[C@H](C)[C@@H](O[C@@H]2O[C@H](C)C[C@H](N(C)C)[C@H]2O)[C@@](C)(OC/C=C/c2cnc3ccccc3c2)C[C@@H](C)/C(=N\O)[C@H](C)[C@H]2OC(=O)O[C@@]21C	64
CC[C@H]1OC(=O)[C@@](C)(F)C(=O)[C@H](C)[C@@H](O[C@@H]2O[C@H](C)C[C@H](N(C)C)[C@H]2O)[C@](C)(OC)C[C@@H](C)/C(=N\OC/C=C/c2cncc(N)c2)[C@H](C)[C@H]2OC(=O)O[C@@]21C	0.5
CC[C@H]1OC(=O)[C@H](C)[C@@H](OC(=O)Cc2ccccn2)[C@H](C)[C@@H](O[C@@H]2O[C@H](C)C[C@H](N(C)C)[C@H]2O)[C@](C)(OC)C[C@@H](C)/C(=N\OC)[C@H](C)[C@H]2OC(=O)O[C@@]21C	4

Memo: C#CCN(C)[C@H]1C[C@@H](C)O[C@@H](O[C@@H]2[C@@H](C)C(=O)[C@@H](C)C(=O)O[C@H](CC)[C@@]3(C)OC(=O)O[C@@H]3[C@@H](C)/C(=N/OC/C=C/c3cnc4ccccc4c3)[C@H](C)C[C@@]2(C)OC)[C@@H]1O , reported MIC: 16

====

System: Streptococcus pyogenes
assayOverview: Ratio of MBC to MIC for Streptococcus pyogenes 01-968 expressing inducible ermA
Type: functional
assayEndpoint: Ratio

compound	assayEndpoint	assayResult
CC[C@H]1OC(=O)[C@H](C)[C@H](OC(=O)Cc2ccccn2)[C@H](C)[C@@H](O[C@@H]2O[C@H](C)C[C@H](N(C)C)[C@H]2O)[C@@](C)(OC/C=C/c2cnc3ccccc3c2)C[C@@H](C)/C(=N\O)[C@H](C)[C@H]2OC(=O)O[C@@]21C	Ratio	8
C#CCN(C)[C@H]1C[C@@H](C)O[C@@H](O[C@@H]2[C@@H](C)C(=O)[C@@H](C)C(=O)O[C@H](CC)[C@@]3(C)OC(=O)O[C@@H]3[C@@H](C)/C(=N/OC/C=C/c3cnc4ccccc4c3)[C@H](C)C[C@@]2(C)OC)[C@@H]1O	Ratio	>8
CC[C@H]1OC(=O)[C@H](C)[C@@H](O[C@H]2C[C@@](C)(OC)[C@@H](O)[C@H](C)O2)[C@H](C)[C@@H](O[C@@H]2O[C@H](C)C[C@H](N(C)C)[C@H]2O)[C@](C)(OC)C[C@@H](C)C(=O)[C@H](C)[C@@H](O)[C@]1(C)O [CLARITHROMYCIN]	Ratio	>8
CC[C@H]1OC(=O)[C@H](C)C(=O)[C@H](C)[C@@H](O[C@@H]2O[C@H](C)C[C@H](N(C)C)[C@H]2O)[C@](C)(OC)C[C@@H](C)/C(=N\OCC#Cc2cncc3ccccc23)[C@H](C)[C@H]2OC(=O)O[C@@]21C	Ratio	>8

I looked up CC[C@H]1OC(=O)[C@@](C)(F)C(=O)[C@H](C)[C@@H](O[C@@H]2O[C@H](C)C[C@H](N(C)C)[C@H]2O)[C@](C)(OC)C[C@@H](C)/C(=N\OCC#Cc2cncc3ccccc23)[C@H](C)[C@H]2OC(=O)O[C@@]21C and its Ratio for Streptococcus pyogenes was >8
